Sourced from patent US20250092080A1

- Test system: Rubella Virus
- Method Summary: Rubella Virus antiviral screening, A549
- Type: cell-based
Observation Type: pIC50
Answers are plain numbers, as −log10 of the molar value.

Recorded pIC50 (compound CNc1nc(N)ncc1-c1cn([C@@H]2O[C@H](COP(=O)(NC(C)C(=O)OC(C)C)Oc3ccccc3)C(O)C2(C)F)cn1 (stereo in doubt) [CDW3-002] ): 4.16

###

- Tested on: Dengue Virus 4
- Method Summary: DENV4 antiviral activity (Tables 11-15)
- Type: cell-based
- Details: DENV4
Please respond with reported IC50 for every item in the list.

Worked cases, answers included:
CCC(CC)COC(=O)[C@H](C)N[P@](=O)(OCCOCn1cncc1-c1cnc(N)nc1OC)Oc1ccccc1 :: > 42 µM
COc1ncc(-c2cn([C@@H]3O[C@H](CO[P@@](=O)(N[C@@H](C)C(=O)OC(C)C)Oc4ccccc4)[C@H](O)C3(C)F)cn2)c(OC)n1 (some centres unmarked) :: > 50 µM

Provide the reported IC50 of each entry below, same order.
1. CNc1cc(-c2cncn2[C@@H]2O[C@H](CO[P@@](=O)(N[C@@H](C)C(=O)OC(C)C)Oc3ccccc3)[C@H](O[P@@](=O)(N[C@@H](C)C(=O)OC(C)C)Oc3ccccc3)C2(C)F)nc(N)n1 (some centres unmarked)
2. COc1ncc(-c2cn([C@@H]3O[C@H](CO[P@@](=O)(N[C@@H](C)C(=O)OC(C)C)Oc4ccccc4)[C@H](O[P@@](=O)(N[C@@H](C)C(=O)OC(C)C)Oc4ccccc4)C3(C)F)cn2)c(OC)n1 (some centres unmarked)
3. CCC(=O)OCCOCn1cnc(-c2cnc(OC)nc2)c1

Solution:
1. 18 µM
2. 16 µM
3. > 50 µM

###

Please respond with reported CC50 for every item in the list.
- Method Summary: Cytotoxicity, Calu3 (WA test)
- Type: cell-based
- Details: human, Calu3 cells; Calu3 (WA lines)

CCC(CC)COC(=O)[C@H](C)N[P@](=O)(OCCOCn1cncc1-c1cnc(N)nc1OC)Oc1ccccc1 [JT-096] :: > 100 µM

Now for the molecule whose CC50 we want.
Recorded CC50 (molecule CCC(CC)COC(=O)[C@H](C)N[P@](=O)(OCCOCn1cncc1-c1cnc(OC)nc1OC)Oc1ccccc1 [JT-092] ): > 100 µM

###

- Method Summary: Cytotoxicity, A549 cells, lab #1
- Details: human
Please respond with reported CC50 for every item in the list.

Worked cases, answers included:
COc1ncc(-c2cn([C@@H]3O[C@H](CO[P@@](=O)(N[C@@H](C)C(=O)OC(C)C)Oc4ccccc4)[C@H](O[P@@](=O)(N[C@@H](C)C(=O)OC(C)C)Oc4ccccc4)C3(C)F)cn2)c(OC)n1 (stereo partly shown) [CDW3-015] :: > 100 µM
CCC(CC)COC(=O)[C@H](C)N[P@](=O)(OCCOCn1cncc1-c1cnc(N)nc1OC)Oc1ccccc1 [JT-096] :: 73.3 µM
CCC(CC)COC(=O)[C@H](C)N[P@](=O)(OCCOCn1cncc1-c1cnc(OC)nc1OC)Oc1ccccc1 [JT-092] :: > 100 µM

Now for the compound whose CC50 we want.
Recorded CC50 (compound CNc1cc(-c2cncn2[C@@H]2O[C@H](CO[P@@](=O)(N[C@@H](C)C(=O)OC(C)C)Oc3ccccc3)[C@H](O[P@@](=O)(N[C@@H](C)C(=O)OC(C)C)Oc3ccccc3)C2(C)F)nc(N)n1 (stereo partly shown) [CEM-034] ): 4.05 µM
